Assay: molar heat capacity at constant pressure
Conditions: 327.15 K; 101.33 kPa; Liquid; Small sample (50 mg) DSC
# reported molar heat capacity at constant pressure; entries follow
Readout Name: molar heat capacity at constant pressure (J/K/mol)

>  <Chemical Smiles>
Clc1ccc(Cl)c(Cl)c1Cl

>  <Readout Name>
molar heat capacity at constant pressure

>  <Endpoint Result>
225.17

$$$$
>  <Chemical Smiles>
Brc1ccccc1Br

>  <Readout Name>
molar heat capacity at constant pressure

>  <Endpoint Result>
185.6

$$$$
>  <Chemical Smiles>
Clc1ccccc1

>  <Readout Name>
molar heat capacity at constant pressure

>  <Endpoint Result>
157.86

$$$$
>  <Chemical Smiles>
Clc1cccc(Br)c1

>  <Readout Name>
molar heat capacity at constant pressure

>  <Endpoint Result>
180.23

$$$$
>  <Chemical Smiles>
Clc1cccc(Cl)c1

>  <Readout Name>
molar heat capacity at constant pressure

>  <Endpoint Result>
176.78

$$$$
>  <Chemical Smiles>
Brc1cccc(Br)c1

>  <Readout Name>
molar heat capacity at constant pressure

>  <Endpoint Result>
184.55

$$$$
